// compounds with pIC50 on Ubiquitin carboxyl-terminal hydrolase 7 (Homo sapiens, UniProt Q93009), multi-source literature
pIC50: −log10 of the molar value.

compound: O=C1CCC(=O)N1Cc1cc2nccc(-c3cc(Cl)cc4c3N(C3CN(C5COC5)C3)CCC4)c2s1
pIC50: 7.00 to 8.00

compound: O=C([C@H]1Cc2cc(Cl)cc(-c3ccnc4cc(CN5C(=O)CCCC5=O)sc34)c2O1)N1CCNCC1
pIC50: > 6.00

compound: O=C(C1Cc2cc(Cl)cc(-c3ccnc4[nH]ccc34)c2O1)N1CCN(C2CCNCC2)CC1 (centres unmarked)
pIC50: 4.52 to 5.00

compound: Cc1cc(Cl)cc(-c2ccnc3cc(Cn4c(=O)ccn(CC(F)(F)F)c4=O)sc23)c1CC1CNCCO1 (centres unmarked)
pIC50: > 8.00

compound: Clc1cc2c(c(-c3ccnc4ccccc34)c1)O[C@@H](c1onc3c1CNCC3)C2
pIC50: > 6.00

compound: CC(=O)NCc1cc2nccc(-c3cc(Cl)cc4c3O[C@@H](C(=O)N3CCNCC3)C4)c2s1
pIC50: > 6.00

compound: CCN1CC(N2CCCc3cc(Cl)cc(-c4ccnc5cc(CN6C(=O)CCC6=O)sc45)c32)C1
pIC50: 7.00 to 8.00

compound: CCC(O)(CC)C1Cc2nccc(-c3cc(Cl)cc4c3O[C@@H](c3onc5c3CNCC5)C4)c2C1 (some centres unmarked)
pIC50: 5.00 to 6.00

Prompt: Give pIC50; test system Ubiquitin carboxyl-terminal hydrolase 7 (Homo sapiens, UniProt Q93009); compound O=C(C1Cc2cc(Cl)cc(-c3ccnc4[nH]ccc34)c2O1)N1CCC(c2ccncc2)CC1 (centres unmarked)
Completion: 5.00 to 6.00

Prompt: Using Ubiquitin carboxyl-terminal hydrolase 7 (Homo sapiens, UniProt Q93009) as the test system, report measured pIC50 of C[C@]1(CO)C[C@H](N2CCOc3cc(C#N)cc(-c4ccnc5cc(Cn6ncc(C7(C(F)(F)F)CC7)cc6=O)sc45)c32)CN1 .
Completion: > 8.00

Prompt: Lab note: Ubiquitin carboxyl-terminal hydrolase 7 (Homo sapiens, UniProt Q93009) assay, enter pIC50 for CN(CC(=O)N1CCC(O)(Cn2cnc3cc(Cl)ccc3c2=O)CC1)c1ccccc1 here
Completion: < 5.00

Prompt: Give reported pIC50 for O=C1CCN(CC(F)(F)F)C(=O)N1Cc1cc2nccc(-c3cc(Cl)cc4c3N([C@H]3CCNC3)CCC4)c2s1 (Ubiquitin carboxyl-terminal hydrolase 7 (Homo sapiens, UniProt Q93009))
Completion: > 8.00

Prompt: Report pIC50 on Ubiquitin carboxyl-terminal hydrolase 7 (Homo sapiens, UniProt Q93009) for this entry: O=C([C@H]1CCc2cc(Cl)cc(-c3ccnc4cc(CO)sc34)c2O1)N1CCNCC1
Completion: > 6.00

====

pIC50: −log10 of the molar value.
Kindly find below pIC50 information for Ubiquitin carboxyl-terminal hydrolase 7 (Homo sapiens, UniProt Q93009) taken from the literature.

compound: C=CCON=C1c2ccccc2-c2nn3c(C)nnc3nc21 (mixture of isomers)
pIC50: 5.50

Prompt: Look up pIC50 of N#CN1Cc2cnn(-c3cc(-c4ccccc4)n[nH]3)c2C1 and report it.
Completion: 4.52 to 5.00

Prompt: Fill in pIC50 for record C[C@@H](c1cc2nccc(-c3cc(Cl)cc4c3O[C@@H](C(=O)N3CCNCC3)C4)c2s1)N1C(=O)CCC1=O
Completion: > 6.00

Prompt: Recall and state the measured pIC50 for COC[C@@]1(C)C[C@H](N2CCCc3cc(Cl)cc(-c4ccnc5cc(CN6C(=O)CCC6=O)sc45)c32)CN1 .
Completion: 7.00 to 8.00
